- Test system: L1210 leukemia ip in BDF1 mice, survival T/C
- Test Protocol: NCI In Vivo Anticancer Drug Screen. Data for tumor model L1210 Leukemia (intraperitoneal) in B6D2F1 (BDF1) mice
- Experimental Parameters: endpoint: mean survival time; dose: 400.0 mg/kg/injection; schedule: Q01DX001 (ip); vehicle: carboxymethylcellulose (CMC); higher = longer survival
Inconclusive results and toxic doses are left out.
Value Type: T/C

Example molecules with recorded T/C:
[
  {
    "Molecule": "OCC1OC(n2cc(Br)c3c(=S)nc[nH]c32)C(O)C1O (centres undefined)",
    "T/C": "106 % of control"
  },
  {
    "Molecule": "Nc1ccc2c(c1)Cc1cc(NC=O)ccc1-2",
    "T/C": "92 % of control"
  }
]

The measured T/C associated with C#CCCCc1ccccc1 reads 96 % of control

Input S=P(NCCCCCCCCNP(=S)(N1CC1)N1CC1)(N1CC1)N1CC1 . Output T/C: 107 % of control

----------
- Test system: L1210 leukemia ip in BDF1 mice, survival T/C
- Test Protocol: NCI In Vivo Anticancer Drug Screen. Data for tumor model L1210 Leukemia (intraperitoneal) in B6D2F1 (BDF1) mice
- Experimental Parameters: endpoint: mean survival time; dose: 50.0 mg/kg/injection; schedule: Q01DX001 (ip); vehicle: carboxymethylcellulose (CMC); higher = longer survival
Inconclusive results and toxic doses are left out.
Value Type: T/C

Illustrative cases are given below, each with its answer.
[
  {
    "Compound": "O=C(O)CCCOc1cc(Cl)c(Cl)cc1Cl",
    "Val": "88 % of control"
  },
  {
    "Compound": "O=N[C@H]1C2CC([C@@H]1Cl)[C@@H]1CC=C[C@H]21 (stereo partly drawn)",
    "Val": "95 % of control"
  },
  {
    "Compound": "Nc1cc(=O)n(Cc2ccccc2)c(=O)n1Cc1ccccc1",
    "Val": "104 % of control"
  },
  {
    "Compound": "CC1(C)c2ccccc2C(C)(C(Cl)(Cl)Cl)c2ccc(Cl)cc21 (stereo not drawn)",
    "Val": "98 % of control"
  },
  {
    "Compound": "C#CCCCc1ccccc1",
    "Val": "102 % of control"
  },
  {
    "Compound": "C/C=C/c1nc2c(c(=O)n(C)c(=O)n2C)n1C",
    "Val": "106 % of control"
  },
  {
    "Compound": "CCCCSSC(Cl)(Cl)Cl",
    "Val": "88 % of control"
  },
  {
    "Compound": "CC(=O)c1ccc(NC(=O)C(F)(F)F)cc1",
    "Val": "101 % of control"
  },
  {
    "Compound": "Cc1ccc(S(=O)(=O)C2CCCCC2)cc1",
    "Val": "96 % of control"
  },
  {
    "Compound": "O=C(Nc1ccc(C(=O)Nc2cccc(C3=NCCN3)c2)cc1)Nc1ccc(C(=O)Nc2cccc(C3=NCCN3)c2)cc1",
    "Val": "103 % of control"
  }
]

Lab note: measured T/C of COC(=O)c1cc(C)cc(NS(=O)(=O)c2ccc(C)cc2)c1C was 89 % of control

Per the records, this compound ( CCCC(CCCC(=O)O)C(=O)O (stereo not drawn) ) has T/C equal to 86 % of control

In plain terms, CC(CO)(CO)N=Cc1cccc([N+](=O)[O-])c1 has a documented T/C of 103 % of control

----------
Reported values of T/C for individual entries
- Tested on: L1210 leukemia ip in BDF1 mice, survival T/C
- Test Protocol: NCI In Vivo Anticancer Drug Screen. Data for tumor model L1210 Leukemia (intraperitoneal) in B6D2F1 (BDF1) mice
- Experimental Parameters: endpoint: mean survival time; dose: 6.25 mg/kg/injection; schedule: Q01DX009 (ip); vehicle: saline; higher = longer survival
Inconclusive results and toxic doses are left out.

Use these answered entries as a reference point.
[
  {
    "Compound": "CCC(=O)NCC(=O)O",
    "T/C": "103 % of control"
  },
  {
    "Compound": "NC(=S)c1nn(C2OC(CO)C(O)C2O)c2ncnc(N)c12 (centres undefined)",
    "T/C": "89 % of control"
  },
  {
    "Compound": "O=[N+]([O-])c1c(Cl)nc2ccccn12",
    "T/C": "95 % of control"
  }
]

Then there is this compound:
Per the record, FC(F)(F)c1ccc2c(c1)N(CCCNCCN1CCOCC1)c1ccccc1S2 has T/C of 101 % of control

----------
- System: L1210 leukemia ip in BDF1 mice, survival T/C
- Test Protocol: NCI In Vivo Anticancer Drug Screen. Data for tumor model L1210 Leukemia (intraperitoneal) in B6D2F1 (BDF1) mice
- Experimental Parameters: endpoint: mean survival time; dose: 100.0 mg/kg/injection; schedule: Q04DX002 (ip); vehicle: Klucel (hydroxypropylcellulose) (HPC); higher = longer survival
Inconclusive results and toxic doses are left out.
Value Type: T/C

Measured T/C (L1210 leukemia ip in BDF1 mice, survival T/C), entry CC(=O)OCCOc1ccc(C(C)(C)C)cc1 : 98 % of control

----------
- Tested on: L1210 leukemia ip in BDF1 mice, survival T/C
- Test Protocol: NCI In Vivo Anticancer Drug Screen. Data for tumor model L1210 Leukemia (intraperitoneal) in B6D2F1 (BDF1) mice
- Experimental Parameters: endpoint: mean survival time; dose: 150.0 mg/kg/injection; schedule: Q01DX001 (ip); vehicle: other; higher = longer survival
Toxic doses and inconclusive results are not listed.
Value Type: T/C

Below are worked cases with known answers.
[
  {
    "Molecule": "O=C(NCC(F)(F)C(F)(F)C(F)(F)C(F)(F)C(F)(F)C(F)(F)C(F)(F)F)Oc1ccccc1",
    "Val": "96 % of control"
  },
  {
    "Molecule": "CCC(C)NNC(C)CC (stereo unspecified)",
    "Val": "112 % of control"
  },
  {
    "Molecule": "C/C=C(\\CC)C1(CC)C(=O)NC(=O)NC1=O",
    "Val": "97 % of control"
  },
  {
    "Molecule": "CC1CCC(NCCOC(=O)c2ccc(N)cc2)CC1 (stereo unspecified)",
    "Val": "108 % of control"
  },
  {
    "Molecule": "O=c1c(N=Nc2ccc(Cl)cc2)c(O)n(-c2ccccc2)c(=S)n1-c1ccccc1",
    "Val": "96 % of control"
  }
]

Kindly consider the entry below.
Reported T/C (L1210 leukemia ip in BDF1 mice, survival T/C) for entry c1ccc2nc3nc4ccccc4nc3nc2c1 is 98 % of control

----------
- System: L1210 leukemia ip in BDF1 mice, survival T/C
- Test Protocol: NCI In Vivo Anticancer Drug Screen. Data for tumor model L1210 Leukemia (intraperitoneal) in B6D2F1 (BDF1) mice
- Experimental Parameters: endpoint: mean survival time; dose: 200.0 mg/kg/injection; schedule: Q01DX001 (ip); vehicle: other; higher = longer survival
Inconclusive results and toxic doses are left out.
Value Type: T/C

Example cases with answers are listed next.
[
  {
    "Structure As Smiles": "CCCCCNC(=O)CCC(=O)NCCCCC",
    "Value Type": "T/C",
    "Val": "98 % of control"
  },
  {
    "Structure As Smiles": "CCN(CC)C(=S)[S][Sn]([S]C(=S)N(CC)CC)([c]1ccccc1)[c]1ccccc1",
    "Value Type": "T/C",
    "Val": "104 % of control"
  },
  {
    "Structure As Smiles": "CCOC(=O)C(Cc1ccc(OCc2ccccc2)c(OCc2ccccc2)c1)(NC=O)C(=O)OCC",
    "Value Type": "T/C",
    "Val": "92 % of control"
  },
  {
    "Structure As Smiles": "COC(=O)C(=C/C=C/c1cc(O)c(O)c(O)c1)C(=O)OC",
    "Value Type": "T/C",
    "Val": "95 % of control"
  },
  {
    "Structure As Smiles": "CCCCCCCN(CCCCCCC)C(C)=O",
    "Value Type": "T/C",
    "Val": "93 % of control"
  }
]

Field T/C (entry O=C1C(=O)c2ccccc2C(O)=C1CCCCCCCCCC[S+](CCO)CCO ) reads 101 % of control

----------
Listing of recorded T/C by entry.
- System: L1210 leukemia ip in BDF1 mice, survival T/C
- Test Protocol: NCI In Vivo Anticancer Drug Screen. Data for tumor model L1210 Leukemia (intraperitoneal) in B6D2F1 (BDF1) mice
- Experimental Parameters: endpoint: mean survival time; dose: 200.0 mg/kg/injection; schedule: Q01DX001 (ip); vehicle: carboxymethylcellulose (CMC); higher = longer survival
- Method: The antitumor activity of compounds was measured in mice bearing transplantable tumors. Survival or tumor size were measured and the results are expressed as the measurement made in the treated group (T) divided by the measurement made in the vehicle treated control group (C). The tumor model used in this assay is L1210 Leukemia (intraperitoneal) in B6D2F1 (BDF1) mice
Toxic doses and inconclusive results are not listed.

Solved entries (count: 2):
[
  {
    "Compound": "CCSC(C(OC(C)=O)C(OC(C)=O)C(OC(C)=O)C(COC(C)=O)OC(C)=O)n1cc(C)c(=O)[nH]c1=O (stereo not drawn)",
    "T/C": "100 % of control"
  },
  {
    "Compound": "CC1(C)c2ccccc2C(C)(C(Cl)(Cl)Cl)c2ccc(Cl)cc21 (stereo not drawn)",
    "T/C": "93 % of control"
  }
]

Now consider a different compound.
For record CC1(C)OCC(C2OC3OC(C)(C)OC3C2OS(C)(=O)=O)O1 (stereo not drawn) the listed T/C is 103 % of control
